From: patent US12685735B2

# key: entry, value: BRM Max % Inhibition
target.entity: BRM (Homo sapiens, UniProt P51531)
Sequence (P51531 whole entry): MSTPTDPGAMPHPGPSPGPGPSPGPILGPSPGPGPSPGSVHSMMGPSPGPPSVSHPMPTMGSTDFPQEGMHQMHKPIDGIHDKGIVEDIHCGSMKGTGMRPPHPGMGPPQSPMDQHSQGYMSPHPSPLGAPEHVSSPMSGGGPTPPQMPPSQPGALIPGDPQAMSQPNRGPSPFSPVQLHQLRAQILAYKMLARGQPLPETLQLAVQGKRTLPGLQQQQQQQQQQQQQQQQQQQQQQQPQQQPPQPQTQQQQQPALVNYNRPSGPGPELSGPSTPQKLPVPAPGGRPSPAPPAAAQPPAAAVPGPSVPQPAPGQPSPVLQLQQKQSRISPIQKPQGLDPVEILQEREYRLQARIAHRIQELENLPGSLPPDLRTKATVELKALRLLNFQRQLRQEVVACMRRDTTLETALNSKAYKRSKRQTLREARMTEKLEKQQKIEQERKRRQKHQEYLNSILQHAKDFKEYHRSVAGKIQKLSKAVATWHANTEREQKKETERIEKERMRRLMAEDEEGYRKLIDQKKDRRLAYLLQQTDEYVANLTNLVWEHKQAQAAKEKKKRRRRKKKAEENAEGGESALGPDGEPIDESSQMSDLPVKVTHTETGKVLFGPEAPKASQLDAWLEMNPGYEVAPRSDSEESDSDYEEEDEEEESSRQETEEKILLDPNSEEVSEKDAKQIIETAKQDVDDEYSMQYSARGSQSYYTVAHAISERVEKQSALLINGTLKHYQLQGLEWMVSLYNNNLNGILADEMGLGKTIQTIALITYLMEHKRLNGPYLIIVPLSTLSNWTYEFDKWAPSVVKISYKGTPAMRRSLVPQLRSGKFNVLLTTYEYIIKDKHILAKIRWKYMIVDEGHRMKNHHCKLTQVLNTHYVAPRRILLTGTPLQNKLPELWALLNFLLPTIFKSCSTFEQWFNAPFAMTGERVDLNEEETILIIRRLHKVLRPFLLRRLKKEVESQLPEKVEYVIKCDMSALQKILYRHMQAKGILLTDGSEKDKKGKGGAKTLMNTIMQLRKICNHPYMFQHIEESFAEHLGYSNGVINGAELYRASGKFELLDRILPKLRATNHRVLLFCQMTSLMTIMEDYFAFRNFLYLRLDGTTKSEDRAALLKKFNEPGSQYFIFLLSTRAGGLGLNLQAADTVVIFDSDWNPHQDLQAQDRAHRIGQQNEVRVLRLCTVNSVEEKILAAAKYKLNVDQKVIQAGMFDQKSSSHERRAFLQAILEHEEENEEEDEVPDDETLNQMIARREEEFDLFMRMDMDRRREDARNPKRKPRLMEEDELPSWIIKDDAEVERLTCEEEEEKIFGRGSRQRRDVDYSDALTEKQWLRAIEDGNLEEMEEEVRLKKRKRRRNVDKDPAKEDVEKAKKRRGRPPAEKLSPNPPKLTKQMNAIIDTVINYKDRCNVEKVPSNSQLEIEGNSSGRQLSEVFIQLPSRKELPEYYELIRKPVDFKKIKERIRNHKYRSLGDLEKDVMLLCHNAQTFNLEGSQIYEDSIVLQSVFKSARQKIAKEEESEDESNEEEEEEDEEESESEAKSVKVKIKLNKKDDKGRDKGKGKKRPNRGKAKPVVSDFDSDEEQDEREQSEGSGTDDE
assay.overview: ATPase catalytic activity assay of BRM (ADP-Glo)
Format: biochemical
property.name: BRM Max % Inhibition

molecule="C[C@@]1(F)COCc2ccc(C(=O)NCC(=O)Nc3nc(-c4cccc(C(F)F)c4)cs3)cc21 [Compound 341]" target_entity="BRM (Homo sapiens, UniProt P51531)" property_name="BRM Max % Inhibition" reported_measurement=>95%
molecule="CC1(C#N)CCc2ccc(C(=O)NCC(=O)Nc3nc(-c4cccc(-c5ccncc5)c4)cs3)cc21 (single isomer, unassigned) [Compound 103]" target_entity="BRM (Homo sapiens, UniProt P51531)" property_name="BRM Max % Inhibition" reported_measurement=>95%
molecule="Cc1nccc(-c2cccc(-c3csc(NC(=O)CNC(=O)c4ccc5c(c4)[C@](C)(C#N)CC5)n3)n2)n1 [Compound 249]" target_entity="BRM (Homo sapiens, UniProt P51531)" property_name="BRM Max % Inhibition" reported_measurement=>95%
molecule="COc1cccc(-c2csc(NC(=O)CNC(=O)c3ccc4c(c3)[C@](C)(F)CCOC4)n2)c1 [Compound 279]" target_entity="BRM (Homo sapiens, UniProt P51531)" property_name="BRM Max % Inhibition" reported_measurement=>90%
